Catalogue of MIC values
Test system: P. aeruginosa LMG6395T
Assay: MIC, broth micro-dilution, primary panel
Assay type: cell-based, Pseudomonas aeruginosa
Settings: Pseudomonas aeruginosa, LMG6395T, WT
Starred links: 1 amine or outer side, 2 acyl side, 3 side chain; linkers in the order of their positions; H or OH if unused. Positions of bridges follow the written chain, without caps; N, C: chain ends. Non-standard residues stand in square brackets, D forms with d. Residues, ends and D or L forms follow the SMILES beside them. X4 = CC(C)CCC=CCCC[C@H](CC(=O)[*:1])O[*:2]; X3 = CC(C)CCCCC[C@H](CC(=O)[*:1])O[*:2]; X2 = CCCCCCC[C@H](CC(=O)[*:1])O[*:2]; Val(3-OH) = CC(C)(O)[C@H](N)C(=O)O; X1 = C/C=C(/N[*:1])C(=O)[*:2]; Dab = NCC[C@H](N)C(=O)O; Dap = NC[C@H](N)C(=O)O
property name: MIC

• C/C=C1/NC(=O)[C@H](CCN)NC(=O)[C@H](CC(C)C)NC(=O)[C@H](CN)NC(=O)C[C@@H](CCCCCCC)OC(=O)[C@H](CC(=O)O)NC(=O)[C@H](C(C)(C)O)NC(=O)[C@@H](Cc2ccccc2)NC(=O)[C@H](CN)NC(=O)[C@H]([C@@H](C)O)NC1=O [Compound 2, isopedopeptin B] ([Dap]L[Dab][X1]T[Dap][dF][Val(3-OH)]D; linker N-C via X2) = 8 to 16 µg/mL
• C/C=C1/NC(=O)[C@H](CCN)NC(=O)[C@H](CC(C)C)NC(=O)[C@H](CN)NC(=O)C[C@@H](CCCCCCC)OC(=O)[C@H](CC(=O)O)NC(=O)[C@H](C(C)C)NC(=O)[C@@H](Cc2ccccc2)NC(=O)[C@H](CN)NC(=O)[C@H]([C@@H](C)O)NC1=O [Compound 4, isopedopeptin D] ([Dap]L[Dab][X1]T[Dap][dF]VD; linker N-C via X2) = > 32 µg/mL
• C/C=C1/NC(=O)[C@H](CCN)NC(=O)[C@H](CC(C)C)NC(=O)[C@H](CN)NC(=O)C[C@@H](CCCCCC(C)C)OC(=O)[C@H](CC(=O)O)NC(=O)[C@H](C(C)(C)O)NC(=O)[C@@H](Cc2ccccc2)NC(=O)[C@H](CN)NC(=O)[C@H]([C@@H](C)O)NC1=O [Compound 1] ([Dap]L[Dab][X1]T[Dap][dF][Val(3-OH)]D; linker N-C via X3) = 8 to 16 µg/mL
• C/C=C1/NC(=O)[C@H](CCN)NC(=O)[C@H](CC(C)C)NC(=O)[C@H](CN)NC(=O)C[C@@H](CCCC=CCCC(C)C)OC(=O)[C@H](CC(=O)O)NC(=O)[C@H](C(C)C)NC(=O)[C@@H](Cc2ccccc2)NC(=O)[C@H](CN)NC(=O)[C@H]([C@@H](C)O)NC1=O [Compound 7, Isopedopeptin G] ([Dap]L[Dab][X1]T[Dap][dF]VD; linker N-C via X4) = 8 to 16 µg/mL
